Every entry's value here was drawn from PubChem BioAssay (Tox21).

TEST_PROTOCOL: A CellTox Green Cytotoxicity Assay to monitor cytotoxicity in HEK293 cells - 40 hour (AID 1224871); note: nearly all actives have a fitted effect of over 45% in size
MEASUREMENT_SETUP: CellTox Green fluorescence; series mostly up to 76.8 µM
Inconclusive results are not listed. Activity calls are given as the source filed them. Calls come from the whole dose curve; as a rule, active = well fitted activation curve with a large enough effect in the repeat runs; inconclusive = weak or mixed curves; inactive = flat fitted curve, though single readings scatter.
Use one of these outcomes when replying: 1 = active, -1 = inactive

[
  {
    "COMPOUND": "CC(C)c1ccc(C(=O)N=C(N)N)cc1S(C)(=O)=O",
    "CLASSIFICATION": -1
  }
]

I'd appreciate the recorded outcome for C=CC(=O)O from this test.
-1

Assay outcome for CCCCCCC(CO)CCCC (centres undefined) : what was it?
-1

Just curious, what result did O=C(Oc1ccccc1)c1ccc2ccccc2c1O get here?
-1

Which outcome was assigned to CC(=O)N[C@@H](Cc1ccc(O)cc1)C(=O)O in this test?
-1

Please let me know the test result on file for CO[C@@H]1[C@@H](OC)[C@H](C)[C@@](O)(CC(=O)O)O[C@H]1[C@H](C)[C@H]1O[C@@]2(CC[C@@](C)([C@H]3CC[C@@](C)([C@@H]4O[C@@H]([C@H]5O[C@](C)(O)[C@H](C)C[C@@H]5C)C[C@@H]4OC4C[C@H](OC)[C@@H](OC)[C@H](C)O4)O3)O2)C[C@H](O)[C@H]1C (some centres undefined) .
1

Assay outcome for CCN(Cc1cccc(S(=O)(=O)O)c1)c1ccc(C(=C2C=CC(=[N+](CC)Cc3cccc(S(=O)(=O)O)c3)C=C2)c2ccc(O)cc2S(=O)(=O)[O-])cc1 : what was it?
-1

I would be grateful if you could indicate the recorded call for O=C(CCS)OCC(COC(=O)CCS)(COC(=O)CCS)COC(=O)CCS .
-1

What was the test verdict on SCCc1cnccn1 ?
-1
